The measurements presented in this section are drawn from ChEMBL document CHEMBL4834481.

Let's look at some molecules and their measured Papp A→B.
- assay-details: Permeability of the compound across apical to basolateral side in human Caco-2 cells
- Type: ADME, cell-based
- condition-summary: read-out: permeability
quantity-measured: Papp A→B (×10⁻⁶ cm/s)

molecule: COc1cncc2c1[C@]1(O)[C@@H](CN)C[C@@H](c3ccccc3)[C@]1(c1ccc(C#N)cc1)O2 (racemic)
comparison-sign: =
number: 0.13
//
molecule: COc1cncc2c1[C@]1(O)[C@@H](CN)[C@H](CO)[C@@H](c3ccccc3)[C@]1(c1ccc(C#N)cc1)O2 (racemic)
comparison-sign: <
number: 0.07
//
molecule: COc1cncc2c1[C@]1(O)[C@@H](CN)[C@H](CO)[C@@H](c3ccccc3)[C@]1(c1ccc(Br)cc1)O2 (racemic)
comparison-sign: =
number: 0.04
//
molecule: COc1cncc2c1[C@]1(O)[C@@H](CN3CC4(COC4)C3)[C@H](CO)[C@@H](c3ccccc3)[C@]1(c1ccc(C#N)cc1)O2 (racemic)
comparison-sign: =
number: 0.19
//
molecule: COc1cncc2c1[C@]1(O)[C@@H](CN3CCOCC3)[C@H](CO)[C@@H](c3ccccc3)[C@]1(c1ccc(C#N)cc1)O2 (racemic)
comparison-sign: =
number: 2.2
//
molecule: COc1cncc2c1[C@]1(O)[C@@H](CN)C[C@@H](c3ccccc3)[C@]1(c1ccc(Br)cc1)O2 (racemic)
comparison-sign: =
number: 0.43
//
molecule: COc1cncc2c1[C@]1(O)[C@@H](CNCC(F)F)[C@H](CO)[C@@H](c3ccccc3)[C@]1(c1ccc(C#N)cc1)O2 (racemic)
comparison-sign: =
number: 0.82
//
molecule: COc1cncc2c1[C@]1(O)[C@@H](CNCc3ccnn3C)[C@H](CO)[C@@H](c3ccccc3)[C@]1(c1ccc(C#N)cc1)O2 (racemic)
comparison-sign: =
number: 0.19
//
molecule: COc1cncc2c1[C@]1(O)[C@@H](CNC3COC3)[C@H](CO)[C@@H](c3ccccc3)[C@]1(c1ccc(C#N)cc1)O2 (racemic)
comparison-sign: =
number: 0.73
//
molecule: COc1cncc2c1[C@]1(O)[C@@H](CN(C)C)[C@H](CO)[C@@H](c3ccccc3)[C@]1(c1ccc(C#N)cc1)O2 (racemic)
comparison-sign: =
number: 0.4

* * *

- assay-details: Metabolic stability of the compound in rat liver microsomes assessed as parent compound remaining measured after 30 mins
- Format: ADME, Microsome
- condition-summary: read-out: Stabilty
Let's look at some molecules and their measured remaining at 0.5 h.
quantity-measured: remaining at 0.5 h (%)

molecule: COc1cncc2c1[C@]1(O)[C@@H](CN)[C@H](CO)[C@@H](c3ccccc3)[C@]1(c1ccc(C#N)cc1)O2 (racemic)
units: %
number: 97

molecule: COc1cncc2c1[C@]1(O)[C@@H](CNCC(F)F)[C@H](CO)[C@@H](c3ccccc3)[C@]1(c1ccc(C#N)cc1)O2 (racemic)
units: %
number: 0

molecule: COc1cncc2c1[C@]1(O)[C@@H](CN)C[C@@H](c3ccccc3)[C@]1(c1ccc(C#N)cc1)O2 (racemic)
units: %
number: 85

molecule: COc1cncc2c1[C@]1(O)[C@@H](CN3CCOCC3)[C@H](CO)[C@@H](c3ccccc3)[C@]1(c1ccc(C#N)cc1)O2 (racemic)
units: %
number: 27

molecule: COc1cncc2c1[C@]1(O)[C@@H](CNCc3ccnn3C)[C@H](CO)[C@@H](c3ccccc3)[C@]1(c1ccc(C#N)cc1)O2 (racemic)
units: %
number: 2

molecule: COc1cncc2c1[C@]1(O)[C@@H](CNC3COC3)[C@H](CO)[C@@H](c3ccccc3)[C@]1(c1ccc(C#N)cc1)O2 (racemic)
units: %
number: 18

molecule: COc1cncc2c1[C@]1(O)[C@@H](CN)[C@H](CO)[C@@H](c3ccccc3)[C@]1(c1ccc(Br)cc1)O2 (racemic)
units: %
number: 95

molecule: COc1cncc2c1[C@]1(O)[C@@H](CN3CCOCC3)[C@H](CO)[C@@H](c3ccccc3)[C@]1(c1ccc(Br)cc1)O2 (racemic)
units: %
number: 0

molecule: COc1cncc2c1[C@]1(O)[C@@H](CN(C)C)[C@H](CO)[C@@H](c3ccccc3)[C@]1(c1ccc(C#N)cc1)O2 (racemic)
units: %
number: 61

molecule: COc1cncc2c1[C@]1(O)[C@@H](CN3CC4(COC4)C3)[C@H](CO)[C@@H](c3ccccc3)[C@]1(c1ccc(C#N)cc1)O2 (racemic)
units: %
number: 48

molecule: COc1cncc2c1[C@]1(O)[C@@H](CN)C[C@@H](c3ccccc3)[C@]1(c1ccc(Br)cc1)O2 (racemic)
units: %
number: 58
